system: Onchocerca ochengi; experiment: WHO-TDR: Onchocerciasis; type: functional; set-up: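 at 12.5 µM on microfilariae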
MEASURED QUANTITY: % Inhibition

| MOLECULE | % Inhibition |
| --- | --- |
| COc1ccc(C)c2sc(N(Cc3cccnc3)C(=O)Cc3ccccc3)nc12 | 0% |
| O=C(Cc1csc(SCc2ccc(Cl)cc2)n1)NCCC1=CCCCC1 | 100% |
| Cc1ccc(Cl)cc1S(=O)(=O)Nc1ccc2c(c1)NC(=O)C(C)(C)CO2 | 100% |
| COc1ccc(CCNC(=O)NCC2CC(=O)N(c3ccc(Cl)cc3)C2)cc1 (stereo not drawn) | 100% |
| COc1ccccc1N1CCN(c2nc(Nc3ccc(C)cc3)c3nccnc3n2)CC1 | 100% |

Provide Onchocerca ochengi % Inhibition reading for O=C(Nc1cccc(-c2ccc3nnc(-c4ccncc4)n3n2)c1)c1ccc2ccccc2n1 .
0%

Provide Onchocerca ochengi % Inhibition reading for O=C(NCCNc1ccc(Nc2ccccn2)nn1)c1ccc(C(F)(F)F)cc1 .
100%

Provide Onchocerca ochengi % Inhibition reading for COc1cc(C(=O)Nc2ccc3c(c2)N(C(=O)c2ccco2)CC3)cc(OC)c1OC .
100%

Provide Onchocerca ochengi % Inhibition reading for O=C(Cc1csc(Nc2ccc(F)cc2)n1)N1CCN(c2ncccn2)CC1 .
100%

Provide Onchocerca ochengi % Inhibition reading for NC(=O)c1csc(NC(=O)C2(c3ccc(Cl)cc3)CCCC2)n1 .
100%

Provide Onchocerca ochengi % Inhibition reading for O=C(Nc1onc2c1CCC2)c1cccc(F)c1 .
100%

Provide Onchocerca ochengi % Inhibition reading for CN1CCN(C(CNC(=O)CCc2ccccc2)c2ccsc2)CC1 (stereo not drawn) .
0%
